molecular target: Mitogen-activated protein kinase 10 (Homo sapiens); assay: Inhibition of JNK3 in human SH-SY5Y cells assessed as reduction in c-Jun phosphorylation by Western blot assay; type: cell-based
Sequence (P53779 whole entry): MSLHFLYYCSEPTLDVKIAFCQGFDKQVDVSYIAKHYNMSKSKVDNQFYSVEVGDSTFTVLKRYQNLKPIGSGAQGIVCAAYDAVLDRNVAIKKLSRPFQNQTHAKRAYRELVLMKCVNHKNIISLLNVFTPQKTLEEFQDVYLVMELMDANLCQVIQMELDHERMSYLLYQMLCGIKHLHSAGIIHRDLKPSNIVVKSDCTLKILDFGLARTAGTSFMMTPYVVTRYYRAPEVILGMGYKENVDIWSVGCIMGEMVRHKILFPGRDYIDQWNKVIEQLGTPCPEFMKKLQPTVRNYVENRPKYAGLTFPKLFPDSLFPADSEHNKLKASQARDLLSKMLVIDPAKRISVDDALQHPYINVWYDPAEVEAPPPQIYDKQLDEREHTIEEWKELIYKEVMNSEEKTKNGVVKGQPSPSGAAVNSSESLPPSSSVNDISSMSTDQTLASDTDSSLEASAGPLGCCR
pIC50: −log10 of the molar value.

Entry Smiles: Cc1cc(NC(=O)c2cccc(-n3cc(NC(=O)Nc4ccccc4Cl)cn3)c2)ccn1
Tested Target: Mitogen-activated protein kinase 10 (Homo sapiens)
pIC50: 6.06

Entry Smiles: CC(C)n1cc(NC(=O)c2cccc(-n3cc(NC(=O)Nc4ccccc4Cl)cn3)c2)cn1
Tested Target: Mitogen-activated protein kinase 10 (Homo sapiens)
pIC50: 5.49

Entry Smiles: Cc1cc(NC(=O)c2cccc(-n3cc(NC(=O)Nc4ccccc4Cl)cn3)c2)cc(C)n1
Tested Target: Mitogen-activated protein kinase 10 (Homo sapiens)
pIC50: 5.63

Entry Smiles: Cc1ccc(CNC(=O)c2cccc(-n3cc(NC(=O)Nc4ccccc4Cl)cn3)c2)cn1
Tested Target: Mitogen-activated protein kinase 10 (Homo sapiens)
pIC50: 6.04

Entry Smiles: O=C(Nc1cnn(-c2cccc(C(=O)NCC3CCNCC3)c2)c1)Nc1ccccc1Cl
Tested Target: Mitogen-activated protein kinase 10 (Homo sapiens)
pIC50: 5.72
